Test system: HOP-92 NSCLC
Test: NCI tumour cell line growth inhibition, 48 h
Quick rule for you: TGI at 4 µM or higher means yes (1), lower means no (0).

Ask | Evaluate CCN1CCC(O)(/C=C/c2ccc(Cl)c(Cl)c2)C(C(=O)/C=C/c2ccc(Cl)c(Cl)c2)C1 (configuration not stated) : TGI at minimum 4 µM?
Reply | no (0)

Ask | Evaluate CC1NCCC(CC(=O)O)C1CC(=O)O (configuration not stated) : TGI at minimum 4 µM?
Reply | yes (1)

Ask | Evaluate `CN(C)c1ccc(/C=C(\C#N)C(=O)c2ccccc2)cc1Br` : TGI at minimum 4 µM?
Reply | yes (1)
